Source: patent US12522594B2

Target: AHR (Homo sapiens, UniProt P35869)
Sequence (P35869 11-848): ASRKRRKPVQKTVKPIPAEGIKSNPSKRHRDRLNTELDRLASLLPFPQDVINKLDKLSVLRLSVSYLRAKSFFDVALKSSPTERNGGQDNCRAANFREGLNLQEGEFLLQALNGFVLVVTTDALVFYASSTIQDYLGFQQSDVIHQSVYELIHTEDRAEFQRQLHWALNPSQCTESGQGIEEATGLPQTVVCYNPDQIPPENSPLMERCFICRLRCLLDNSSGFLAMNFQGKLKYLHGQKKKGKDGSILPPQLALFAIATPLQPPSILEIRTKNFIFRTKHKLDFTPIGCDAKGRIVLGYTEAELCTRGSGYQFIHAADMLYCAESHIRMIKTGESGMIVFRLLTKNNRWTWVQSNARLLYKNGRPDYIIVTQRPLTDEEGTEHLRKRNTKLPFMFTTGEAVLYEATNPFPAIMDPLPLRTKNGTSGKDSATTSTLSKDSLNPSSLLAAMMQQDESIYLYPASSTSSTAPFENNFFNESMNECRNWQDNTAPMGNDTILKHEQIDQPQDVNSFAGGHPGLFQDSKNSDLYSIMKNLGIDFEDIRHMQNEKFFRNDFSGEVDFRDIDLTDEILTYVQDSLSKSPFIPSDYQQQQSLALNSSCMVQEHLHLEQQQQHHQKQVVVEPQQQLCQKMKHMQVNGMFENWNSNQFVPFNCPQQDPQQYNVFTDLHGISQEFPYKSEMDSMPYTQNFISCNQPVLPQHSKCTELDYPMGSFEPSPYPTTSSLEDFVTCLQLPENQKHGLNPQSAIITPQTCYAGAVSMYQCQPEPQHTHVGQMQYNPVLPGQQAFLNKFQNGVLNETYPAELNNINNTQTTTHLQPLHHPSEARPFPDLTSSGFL
Test: In vitro assay 1: antagonism in human cell line (transactivation assay, U87 cells prestimulated with kynurenic acid, DRE firefly luciferase reporter)
Type: cell-based
Parameters: host or cells: U87 glioblastoma cells, stably transfected with DRE firefly luciferase and renilla reporter constructs
Conditions: 150 uM kynurenic acid, 20 hours, read-out: Assay 1: AHR-luc Hum Antagonism IC50
Observation Type: IC50

>>> assay_result("Cn1cc(-n2nc(-c3ccc(C(F)(F)F)cc3)cc(C(=O)N[C@@H]3COC[C@@H]3O)c2=O)cn1 (single isomer, unassigned) [Example 231]")
"0.00789 µM"
>>> assay_result("C[C@@H](NC(=O)c1cc(-c2ccc(Cl)cc2)nn(-c2cncnc2)c1=O)C(C)(C)O")
"0.0488 µM"
>>> assay_result("O=C(NC[C@H](O)C(F)F)c1cc(-c2ccc(OC(F)(F)F)cc2)nn(-c2cccnc2)c1=O")
"0.0319 µM"
>>> assay_result("C[C@H](NC(=O)c1cc(-c2ccc(Cl)cc2)nn(-c2cnsc2)c1=O)C(C)(C)O")
"0.00124 µM"
>>> assay_result("O=C(N[C@@H]1CC[C@@H]1O)c1cc(-c2ccc(Cl)cc2)nn(-c2cccnc2)c1=O (single isomer, unassigned) [Example 281]")
"0.261 µM"

Look up and report measured IC50 (AHR (Homo sapiens, UniProt P35869)) for the following compound: O=C(N[C@H]1COC[C@@H]1O)c1cc(-c2ccc(Cl)cc2)nn(-c2cccnc2)c1=O (single isomer, unassigned; enantiomer 1) [Example 169]
0.0317 µM

Report IC50 on AHR (Homo sapiens, UniProt P35869) for this entry: `O=C(N[C@H]1COCC[C@H]1O)c1cc(-c2ccc(OC(F)(F)F)cc2)nn(-c2cccnc2)c1=O`
0.0661 µM
